# Tested on: OVCAR-4 ovarian
# protocol summary: NCI tumour cell line growth inhibition, 48 h
TGI values for the compounds below.
measure: TGI

Cn1cc(C[C@@H](N)C(=O)O)c2ccccc21 = > 100 µM
COc1ccc(C2=NN(c3ccccc3)C(c3cc4cc(Br)ccc4nc3Cl)C2)cc1 (stereo not given) = > 25 µM
C[C@H]1CC[C@@H]2[C@@H](C)[C@H]3[C@H](C[C@H]4[C@@H]5CC=C6C[C@@H](O)CC[C@]6(C)[C@H]5C[C@H](O)[C@]34C)N2C1 = > 100 µM
COc1ccc([N-]/C(=N\n2c(=O)c(C)nn(C)c2=S)N(c2ccc(OC)cc2)c2nn3c(=O)c(C)n[n+](C)c3s2)cc1 = > 100 µM
O=C(O)CCC1(Br)CCCCC(Br)C1=O (stereo not given) = > 100 µM
